Target: T1, human B7-H4 on the cell surface (human, UniProt Q7Z7D3 25-282)
T1 construct: full-length human B7-H4 on transfected HEK293T cells or endogenous on SK-BR-3 cells; also called SK-BR-3 (endogenous human B7-H4)
T1 sequence: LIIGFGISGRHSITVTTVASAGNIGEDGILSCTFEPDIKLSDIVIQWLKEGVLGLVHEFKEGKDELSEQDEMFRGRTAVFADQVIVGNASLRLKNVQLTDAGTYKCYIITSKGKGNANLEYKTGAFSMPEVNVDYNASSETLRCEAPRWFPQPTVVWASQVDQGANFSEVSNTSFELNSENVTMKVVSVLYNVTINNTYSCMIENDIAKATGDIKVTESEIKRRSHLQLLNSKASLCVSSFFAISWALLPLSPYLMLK
Test: flow cytometry, SK-BR-3 cells
Listing of recorded pEC50 by entry.
Please keep in mind that pEC50 is minus log10 of the molar concentration; only the number is needed.

BINDER	READOUT LABEL	NUMBER
B7-H4 antibody 15465 (antibody, human IgG1, kappa, V domains shown, human IgG1/kappa) VH: QVQLQESGPGLVKPSQTLSLTCTVSGGSISSGGYYWSWIRQHPGKGLEWIGNIYYSGSTYYNPSLKSRVTISVDTSKNQFSLKLSSVTAADTAVYYCARESSTISADFDLWGRGTLVTVSS VL: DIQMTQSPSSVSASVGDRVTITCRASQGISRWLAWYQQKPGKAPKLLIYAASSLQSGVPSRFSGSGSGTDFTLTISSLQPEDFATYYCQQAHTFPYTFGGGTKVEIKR	pEC50	8.67
B7-H4 antibody 15489 (antibody, human IgG1, kappa, V domains shown, human IgG1/kappa) VH: QVQLQESGPGLVKPSETLSLTCTVSGGSISSYYWSWIRQPPGKGLEWIGYIYSSGSTNYNPSLKSRVTISVDTSKNQFSLKLSSVTAADTAVYYCARGSGQYAAPDYGMDVWGQGTTVTVSS VL: DIQMTQSPSTLSASVGDRVTITCRASQSISSWLAWYQQKPGKAPKLLIYKASSLESGVPSRFSGSGSGTEFTLTISSLQPDDFATYYCQQDNSFPFTFGGGTKVEIKR	pEC50	7.50

Then there is this binder:
Req: # pEC50 lookup, item B7-H4 antibody 15461 (antibody, human IgG1, kappa, V domains shown, human IgG1/kappa) VH: QLQLQESGPGLVKPSETLSLTCTVSGGSISSSSYYWGWIRQPPGKGLEWIGNIYYSGSTYYNPSLKSRVTISVDTSKNQFSLKLSSVTAADTAVYYCAREGSYPNWFDPWGQGTLVTVSS VL: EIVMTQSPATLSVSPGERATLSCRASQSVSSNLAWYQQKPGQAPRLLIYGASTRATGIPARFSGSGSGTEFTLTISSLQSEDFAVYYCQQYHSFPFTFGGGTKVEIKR
Resp: 8.25
